# System: E. coli 14
# procedure-summary: MIC, liquid medium test tube series dilution test
# Assay type: cell-based
# condition-notes: E. coli 14, 24 hours, 37°C
measured-metric: MIC (units/ml)

* Cc1ccc(C(NC(=O)N(C)C(=O)c2ccccc2F)C(=O)N[C@@H]2C(=O)N3[C@@H]2SC(C)(C)[C@@H]3C(=O)O)cc1 (stereo partly drawn) | 6.25
* CN(C(=O)N[C@@H](C(=O)N[C@@H]1C(=O)N2[C@@H]1SC(C)(C)[C@@H]2C(=O)O)c1ccccc1)C(=O)c1c(Cl)cccc1Cl | 0.8

[I] CN(C(=O)C=Cc1cccc([N+](=O)[O-])c1)C(=O)N[C@@H](C(=O)N[C@@H]1C(=O)N2[C@@H]1SC(C)(C)[C@@H]2C(=O)O)c1ccccc1
[II] COC(=O)N(C)C(=O)N[C@@H](C(=O)N[C@@H]1C(=O)N2[C@@H]1SC(C)(C)[C@@H]2C(=O)O)c1ccccc1
-- ask Quick one: lower MIC, I or II ? When you have decided, please share the label of that item.
-- reply I
(I: 0.8 units/ml, II: 6.25 units/ml)

----------
# System: Psdm. aerug. Bonn
# procedure-summary: MIC, liquid medium test tube series dilution test
# Assay type: cell-based, Pseudomonas aerug.
# condition-notes: 24 hours, 37°C
# Experimental: The chemotherapeutic activity of the new penicillins was tested in vivo and in vitro. The in vitro inhibition values (MIC = minimum inhibition concentration (see Tables 1 and 2) were determined in a liquid medium in the test tube series dilution test, with readings being taken after 24 hours' incubation at 37°C. The MIC is indicated by the non-turbid test tube in the dilution series. A complete medium of the following composition was used as the nutrient medium: […]
measured-metric: MIC (units/ml)

See these solved cases before continuing.
* CN(C(=O)CCC(Cl)(Cl)Cl)C(=O)N[C@@H](C(=O)N[C@@H]1C(=O)N2[C@@H]1SC(C)(C)[C@@H]2C(=O)O)c1ccccc1 | 25
* Cc1ccc(C(NC(=O)N2CCNC2=O)C(=O)N[C@@H]2C(=O)N3[C@@H]2SC(C)(C)[C@@H]3C(=O)O)cc1 (stereo partly shown) [Example 46] | 25

[P] CC(=O)N(C)C(=O)NC(C(=O)N[C@@H]1C(=O)N2[C@@H]1SC(C)(C)[C@@H]2C(=O)O)c1ccc(C)cc1 (stereo partly shown)
[Q] CN(C(=O)N[C@@H](C(=O)N[C@@H]1C(=O)N2[C@@H]1SC(C)(C)[C@@H]2C(=O)O)c1ccccc1)C(=O)N1CCCC1
[R] CN(C(=O)CCCl)C(=O)N[C@@H](C(=O)N[C@@H]1C(=O)N2[C@@H]1SC(C)(C)[C@@H]2C(=O)O)c1ccccc1
[S] CC1(C)S[C@@H]2[C@H](NC(=O)[C@H](NC(=O)N3CCCCC3=O)c3ccccc3)C(=O)N2[C@H]1C(=O)O
[T] CN(C(=O)N[C@@H](C(=O)N[C@@H]1C(=O)N2[C@@H]1SC(C)(C)[C@@H]2C(=O)O)c1ccccc1)C(=O)c1c(Cl)cccc1Cl
-- ask Arrange the 5 compounds from largest to smallest MIC. Returns: the labels arranged in the requested order.
-- reply P, S, Q, R, T
(P: 200 units/ml, S: 100 units/ml, Q: 50 units/ml, R: 25 units/ml, T: 12.5 units/ml)

----------
# System: Proteus vulg. 1017
# procedure-summary: MIC, liquid medium test tube series dilution test
# Assay type: cell-based, Proteus vulgaris
# condition-notes: Proteus vulg. 1017, 24 hours, 37°C
measured-metric: MIC (units/ml)

Below: 3 compounds and their reported MIC.
• CN(C(=O)N[C@@H](C(=O)N[C@@H]1C(=O)N2[C@@H]1SC(C)(C)[C@@H]2C(=O)O)c1ccccc1)C(=O)N1CCOCC1 = 50
• CC(=O)N(C)C(=O)NC(C(=O)N[C@@H]1C(=O)N2[C@@H]1SC(C)(C)[C@@H]2C(=O)O)c1cccs1 (stereo partly shown) = 100
• CCN(CC)C(=O)N(C)C(=O)N[C@@H](C(=O)N[C@@H]1C(=O)N2[C@@H]1SC(C)(C)[C@@H]2C(=O)O)c1ccccc1 = 100

[I] CN(C(=O)NC(C(=O)N[C@@H]1C(=O)N2[C@@H]1SC(C)(C)[C@@H]2C(=O)O)c1cccs1)C(=O)c1ccccc1Cl (stereo partly shown)
[II] CCCCOC(=O)N(C)C(=O)N[C@@H](C(=O)N[C@@H]1C(=O)N2[C@@H]1SC(C)(C)[C@@H]2C(=O)O)c1ccccc1 [Example 98]
[III] CC1(C)S[C@@H]2[C@H](NC(=O)C(NC(=O)N3CCNC3=O)c3ccc(Cl)cc3)C(=O)N2[C@H]1C(=O)O (stereo partly shown)
[IV] CN(C(=O)N[C@@H](C(=O)N[C@@H]1C(=O)N2[C@@H]1SC(C)(C)[C@@H]2C(=O)O)c1ccccc1)C(=O)c1ccccc1[N+](=O)[O-]
-- ask Order the items by recorded MIC; the first position goes to the largest value. Put the labels in the requested order and write them down.
-- reply III, I, II, IV
(III: 50 units/ml, I: 25 units/ml, II: 12.5 units/ml, IV: 3.1 units/ml)

----------
# Test system: Klebsiella 63
# procedure-summary: MIC, liquid medium test tube series dilution test
# Assay type: cell-based
# condition-notes: Klebsiella 63, 24 hours, 37°C
# Experimental: The chemotherapeutic activity of the new penicillins was tested in vivo and in vitro. The in vitro inhibition values (MIC = minimum inhibition concentration (see Tables 1 and 2) were determined in a liquid medium in the test tube series dilution test, with readings being taken after 24 hours' incubation at 37°C. The MIC is indicated by the non-turbid test tube in the dilution series. A complete medium of the following composition was used as the nutrient medium: […]
measured-metric: MIC (units/ml)

- CN(C(=O)N[C@@H](C(=O)N[C@@H]1C(=O)N2[C@@H]1SC(C)(C)[C@@H]2C(=O)O)c1ccccc1)C(=O)OC1CCCCC1 [Example 67]: 100

[I] CN(C(=O)CCCCl)C(=O)N[C@@H](C(=O)N[C@@H]1C(=O)N2[C@@H]1SC(C)(C)[C@@H]2C(=O)O)c1ccccc1 [Example 2]
[II] Cc1ccccc1C(=O)N(C)C(=O)N[C@@H](C(=O)N[C@@H]1C(=O)N2[C@@H]1SC(C)(C)[C@@H]2C(=O)O)c1ccccc1
-- ask Which value of MIC is smaller, the one for I or the one for II ? Write the label of whichever entry you select.
-- reply II
(II: 6.25 units/ml, I: 50 units/ml)

----------
# Test system: Klebsiella 63
# procedure-summary: MIC, liquid medium test tube series dilution test
# Type: cell-based
# condition-notes: Klebsiella 63, 24 hours, 37°C
measured-metric: MIC

Would you please look over these solved cases?
- CNC(=O)N(C)C(=O)N[C@@H](C(=O)N[C@@H]1C(=O)N2[C@@H]1SC(C)(C)[C@@H]2C(=O)O)c1ccccc1: 4-20 units/ml
- COC(=O)N(C)C(=O)NC(C(=O)N[C@@H]1C(=O)N2[C@@H]1SC(C)(C)[C@@H]2C(=O)O)c1c(Cl)cccc1Cl (stereo partly drawn): > 500 units/ml

// switching to the query compound
-- ask Bench note: what MIC did CN(C(=O)N[C@@H](C(=O)N[C@@H]1C(=O)N2[C@@H]1SC(C)(C)[C@@H]2C(=O)O)c1ccccc1)C(=O)c1cccs1 show?
-- reply 4-20 units/ml

----------
# Test system: E. coli C 165
# procedure-summary: MIC, liquid medium test tube series dilution test
# Type: cell-based
# condition-notes: E. coli C 165, 24 hours, 37°C
# Protocol: The chemotherapeutic activity of the new penicillins was tested in vivo and in vitro. The in vitro inhibition values (MIC = minimum inhibition concentration (see Tables 1 and 2) were determined in a liquid medium in the test tube series dilution test, with readings being taken after 24 hours' incubation at 37°C. The MIC is indicated by the non-turbid test tube in the dilution series. A complete medium of the following composition was used as the nutrient medium: […]
measured-metric: MIC

Reference set (3 entries):
* CCN(C(=O)N[C@@H](C(=O)N[C@@H]1C(=O)N2[C@@H]1SC(C)(C)[C@@H]2C(=O)O)c1ccccc1)C(=O)c1ccc(OC)c([N+](=O)[O-])c1 | 4-20 units/ml
* COC(=O)N(C)C(=O)N[C@H](C(=O)N[C@@H]1C(=O)N2[C@@H]1SC(C)(C)[C@@H]2C(=O)O)c1c(Cl)cccc1Cl | > 500 units/ml
* CC1(C)S[C@@H]2[C@H](NC(=O)[C@H](NC(=O)N3CCNC3=O)c3ccccc3)C(=O)N2[C@H]1C(=O)O [Example 51] | 12,5 units/ml

-- ask Lookup: MIC / E. coli C 165 / CN(C)C(=O)N(C)C(=O)NC(C(=O)N[C@@H]1C(=O)N2[C@@H]1SC(C)(C)[C@@H]2C(=O)O)c1cccs1 (stereo partly drawn)
-- reply 100-500 units/ml

-- ask Kindly state the measured MIC obtained for CC(C)C(=O)N(C)C(=O)N[C@@H](C(=O)N[C@@H]1C(=O)N2[C@@H]1SC(C)(C)[C@@H]2C(=O)O)c1ccccc1 with E. coli C 165.
-- reply 4-20 units/ml

-- ask # returns recorded MIC (system: E. coli C 165) for COC(=O)N(C)C(=O)NC(C(=O)N[C@@H]1C(=O)N2[C@@H]1SC(C)(C)[C@@H]2C(=O)O)c1ccc(OC)cc1 (stereo partly drawn)
-- reply 20-100 units/ml

Every entry's value here was drawn from patent US3974140A.
